Values compiled from patent US20140296146A1.

Target: T1, h-FXIIa (human), P00748
T1 chain: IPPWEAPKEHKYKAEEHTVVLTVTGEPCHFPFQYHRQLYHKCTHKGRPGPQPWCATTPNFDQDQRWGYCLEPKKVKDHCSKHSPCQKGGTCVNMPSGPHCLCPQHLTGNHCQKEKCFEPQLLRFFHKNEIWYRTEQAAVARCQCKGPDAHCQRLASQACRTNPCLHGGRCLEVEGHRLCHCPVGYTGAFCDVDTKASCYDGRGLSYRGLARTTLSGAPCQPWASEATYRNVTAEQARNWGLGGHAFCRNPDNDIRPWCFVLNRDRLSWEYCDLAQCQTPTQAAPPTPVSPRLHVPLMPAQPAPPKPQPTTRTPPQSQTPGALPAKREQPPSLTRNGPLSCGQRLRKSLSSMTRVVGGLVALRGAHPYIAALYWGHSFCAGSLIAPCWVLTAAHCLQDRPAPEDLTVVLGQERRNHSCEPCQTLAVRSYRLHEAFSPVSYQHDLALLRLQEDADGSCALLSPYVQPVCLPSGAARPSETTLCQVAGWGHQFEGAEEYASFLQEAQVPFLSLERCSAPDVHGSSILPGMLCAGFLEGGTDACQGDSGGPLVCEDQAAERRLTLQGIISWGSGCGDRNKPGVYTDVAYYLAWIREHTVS
Test: S2302 hydrolysis by h-FXIIa (5.01 nM); inhibitor 30 min 95° C.
pKi: −log10 of the molar value.
readout name: pKi

>>> assay_result("RVCPRILMKCKKDSDCLAECVCLEHGYCG (modifications not checked) [TICA 1]")
7.62
